The measured values listed here are drawn from PubChem BioAssay AID2060619.

Tested on: 323965-272-R-J2-PDC complex spheroid viability;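 further: spheroids exposed to agents for seven days before readout; percent of DMSO vehicle control wells so 100% = untreated growth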
Experiment: Anticancer human tumor 323965-272-R-J2-PDC patient-derived pancreatic carcinoma cell line growth inhibition [CLK]
Conditions: second compound 0.1 µM; first compound 1 µM; hits give low values
Excerpt: A high-throughput screen of multi-cell type tumor spheroids was designed to identify active combinations of […] and targeted small molecules. Complex spheroids include a stromal component modeled by human endothelial cells (HUVEC) and fibroblasts modeled by human mesenchymal stem cells (MSCs). […] Compounds. […] If the clinical Cmax for an agent had not been determined, the highest concentration tested was 10 microM. […]
QUANTITY KIND: viability, T/C

Previously resolved entries follow.
C#Cc1c(F)ccc2cc(O)cc(-c3ncc4c(N5CC6CCC(C5)N6)nc(OCC56CCCN5CC(F)C6)nc4c3F)c12 (stereo not given) + CNC(=O)c1ccc(Nc2nc(OC3CCCC3)c3c(-c4ccc5nc(C)oc5c4)c[nH]c3n2)c(OC)c1	58.7%
C=C(F)C(=O)N1CCN(c2nc(OCC3CCCN3C)nc3c2CCN(c2cccc4cccc(Cl)c24)C3)CC1CC#N (stereo not given) + CN1CCN(c2cc(C(=O)Nc3cc4cc(-c5cnn(C)c5)ccc4cn3)ccn2)CC1	44.3%
Nc1ccccc1NC(=O)c1ccc(CNC(=O)OCc2cccnc2)cc1 + CNC(=O)c1ccc(Nc2nc(OC3CCCC3)c3c(-c4ccc5nc(C)oc5c4)c[nH]c3n2)c(OC)c1	92.2%
COc1cccc2c1C(=O)c1c(O)c3c(c(O)c1C2=O)CC(O)(C(=O)CO)CC3OC1CC(N)C(O)C(C)O1 (stereo not given) + CNC(=O)c1ccc(Nc2nc(OC3CCCC3)c3c(-c4ccc5nc(C)oc5c4)c[nH]c3n2)c(OC)c1	28%

Next up:
Inquiry: Entry COc1c(OCCCN2CCOCC2)ccc2c3n(c(=NC(=O)c4cnc(N)nc4)nc12)CCN3 + CNC(=O)c1ccc(Nc2nc(OC3CCCC3)c3c(-c4ccc5nc(C)oc5c4)c[nH]c3n2)c(OC)c1 has what viability, T/C?
Reply text: 21.1%
